EXPERIMENTAL TARGET: human GcgR (Homo sapiens, UniProt P47871)
Sequence (P47871 26-477): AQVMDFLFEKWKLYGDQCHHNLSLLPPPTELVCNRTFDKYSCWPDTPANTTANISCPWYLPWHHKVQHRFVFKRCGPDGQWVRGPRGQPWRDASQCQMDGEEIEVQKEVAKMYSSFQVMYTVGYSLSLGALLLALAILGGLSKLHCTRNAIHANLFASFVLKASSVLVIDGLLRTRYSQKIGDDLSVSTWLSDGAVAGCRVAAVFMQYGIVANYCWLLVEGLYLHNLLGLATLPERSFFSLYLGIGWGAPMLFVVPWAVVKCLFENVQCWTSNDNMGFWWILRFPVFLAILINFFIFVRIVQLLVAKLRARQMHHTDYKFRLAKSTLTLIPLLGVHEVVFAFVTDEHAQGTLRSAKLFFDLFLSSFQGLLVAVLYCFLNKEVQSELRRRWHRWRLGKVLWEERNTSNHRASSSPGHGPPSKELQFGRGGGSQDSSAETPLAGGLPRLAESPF
EXPERIMENT DESCRIPTION: Functional cAMP activity in the presence of 1% HSA
Format: cell-based
ASSAY CONDITIONS: read-out: cAMP Rel EC50, hGcgR
Starred links: 1 amine or outer side, 2 acyl side, 3 side chain; linkers in the order of their positions; H or OH if unused. Non-standard residues stand in square brackets, D forms with d. Groups on a side chain read outwards from the residue. No end group written: not given here. *: point of attachment. C20 diacid = O=C(O)CCCCCCCCCCCCCCCCCCC(=O)*; C18 diacid = O=C(O)CCCCCCCCCCCCCCCCC(=O)*; γGlu = O=C(O)[C@H](CCC(=O)[*:2])N[*:1]; αMe4Pal = C[C@](N)(Cc1ccncc1)C(=O)O; 4Pal = N[C@@H](Cc1ccncc1)C(=O)O; αMeL = CC(C)C[C@](C)(N)C(=O)O; Orn = NCCC[C@H](N)C(=O)O; AEEA = NCCOCCOCC(=O)O; Aib = CC(C)(N)C(=O)O
MEASURE NAME: EC50 (nM)
Field: numeric (nM). Do not append units.

Examples with their reported EC50 follow.
[
  {
    "SUBSTANCE": "Y[Aib]QGTFTSDFS[Orn][αMeL]LDKK([AEEA-γGlu-C18 diacid])AQ[Aib]AFIEYLLEGGPSSGAPPPSEG-NH2 [Example 50]",
    "EC50 (nM)": 1040
  },
  {
    "SUBSTANCE": "H-Y[Aib]QGTFTSD[4Pal]SQ[αMeL]LD[Orn]K([γGlu-γGlu-C18 diacid])AQ[αMe4Pal]AFIEYLIA[Aib]GPSSGAPPPSGSEE-NH2 [Example 1091]",
    "EC50 (nM)": 550
  },
  {
    "SUBSTANCE": "H-Y[Aib]QGTFTSDFS[Orn][αMeL]LDKK([AEEA-γGlu-C18 diacid])AQ[Aib]AFIEWLLEGGSSSGAPPPSGS-NH2 [Example 173]",
    "EC50 (nM)": 745
  }
]

Problem: # query: EC50 of entry Y[Aib]QGTFTSD[4Pal]SQ[αMeL]LD[Orn]K([γGlu-γGlu-C18 diacid])AQ[αMe4Pal]AFIEYLIE[Aib]GPSSGAPPPSGS-NH2 [Example 935]
Result: 659

Problem: # query: EC50 of entry H-Y[Aib]QGTFTSD[4Pal]SQ[αMeL]LDKK([γGlu-γGlu-C18 diacid])AQ[αMe4Pal]AFIEYLIE[Aib]GPSSGAPPPSGTE-NH2 [Example 1126]
Result: 452

Problem: # query: EC50 of entry H-Y[Aib]QGTFTSDFS[Orn][αMeL]LDKK([AEEA-γGlu-C20 diacid])AQ[Aib]AFIEWLLEGGPSSGAPPPEGE-NH2 [Example 101]
Result: 2810

Problem: # query: EC50 of entry H-Y[Aib]QGTFTSDFS[Orn][αMeL]LDKK([AEEA-γGlu-C18 diacid])AQ[Aib]AFIEYLLE[Aib]GPSSGAPPPSGS-NH2 [Example 74]
Result: 709

Provenance of the data: patent US20240270821A1
